B1: PLAGL1 (parent)
chain: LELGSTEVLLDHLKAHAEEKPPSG

variants of: B1; experiment: protein stability index of a GFP-peptide fusion (GPS, HEK-293T) (PSI 1-6); higher = more stable; conditions: c terminus: a fixed tail appended;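 also: lentivirally expressed fusions sorted by FACS into six bins by GFP to DsRed ratio, PSI derived from sequencing read proportions per bin multiplied by bin number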
Response key: 1.0 means protein stability index >= 4; 0.0 means protein stability index < 4.

Qu. Please indicate if the recorded protein stability index for LELGSNEVLLDHLKAHAEEKPPSG [T6N] meets or exceeds 4.
Ans. 1.0

Qu. Please indicate if the recorded protein stability index for IELGSTEVLLDHLKAHAEEKPPSG [L1I] meets or exceeds 4.
Ans. 0.0

Qu. Please indicate if the recorded protein stability index for LELGDTEVLLDHLKAHAEEKPPSG [S5D] meets or exceeds 4.
Ans. 1.0

Qu. Please indicate if the recorded protein stability index for LELGSTEVLLDHDKAHAEEKPPSG [L13D] meets or exceeds 4.
Ans. 1.0

Qu. Please indicate if the recorded protein stability index for LELGSTEVLLIHLKAHAEEKPPSG [D11I] meets or exceeds 4.
Ans. 0.0

Qu. Please indicate if the recorded protein stability index for VELGSTEVLLDHLKAHAEEKPPSG [L1V] meets or exceeds 4.
Ans. 1.0

Qu. Please indicate if the recorded protein stability index for LELGSTYVLLDHLKAHAEEKPPSG [E7Y] meets or exceeds 4.
Ans. 0.0

Qu. Please indicate if the recorded protein stability index for LELGSTEVLLDHLKAHAEEKPPCG [S23C] meets or exceeds 4.
Ans. 1.0

Qu. Please indicate if the recorded protein stability index for LELGSTEVLLDHLKEHAEEKPPSG [A15E] meets or exceeds 4.
Ans. 1.0

Qu. Please indicate if the recorded protein stability index for LELGSTWVLLDHLKAHAEEKPPSG [E7W] meets or exceeds 4.
Ans. 0.0

Qu. Please indicate if the recorded protein stability index for LYLGSTEVLLDHLKAHAEEKPPSG [E2Y] meets or exceeds 4.
Ans. 0.0

Qu. Please indicate if the recorded protein stability index for LELGSYEVLLDHLKAHAEEKPPSG [T6Y] meets or exceeds 4.
Ans. 0.0

Qu. Please indicate if the recorded protein stability index for LELGSTEVLLDHLKAHAEEKNPSG [P21N] meets or exceeds 4.
Ans. 1.0

Qu. Please indicate if the recorded protein stability index for LELGSTEVLLDHLKAHQEEKPPSG [A17Q] meets or exceeds 4.
Ans. 1.0

Qu. Please indicate if the recorded protein stability index for LELGSTEVLLDSLKAHAEEKPPSG [H12S] meets or exceeds 4.
Ans. 1.0

Qu. Please indicate if the recorded protein stability index for LELGKTEVLLDHLKAHAEEKPPSG [S5K] meets or exceeds 4.
Ans. 0.0

Qu. Please indicate if the recorded protein stability index for LELGSTEVLLDHLKTHAEEKPPSG [A15T] meets or exceeds 4.
Ans. 1.0

Qu. Please indicate if the recorded protein stability index for LELGSTEVLLDHLKAHAEEKPPSH [G24H] meets or exceeds 4.
Ans. 1.0

Qu. Please indicate if the recorded protein stability index for LELGSTEVYLDHLKAHAEEKPPSG [L9Y] meets or exceeds 4.
Ans. 1.0

Qu. Please indicate if the recorded protein stability index for LELGSTEVLLDHLKAMAEEKPPSG [H16M] meets or exceeds 4.
Ans. 0.0

Qu. Please indicate if the recorded protein stability index for LELGSTEVLLDHLKAHAEEKPPDG [S23D] meets or exceeds 4.
Ans. 1.0

Qu. Please indicate if the recorded protein stability index for LELGSTEVLLDHLKAHAEEKQPSG [P21Q] meets or exceeds 4.
Ans. 1.0

Qu. Please indicate if the recorded protein stability index for LMLGSTEVLLDHLKAHAEEKPPSG [E2M] meets or exceeds 4.
Ans. 0.0

Qu. Please indicate if the recorded protein stability index for LELGSTEVLMDHLKAHAEEKPPSG [L10M] meets or exceeds 4.
Ans. 1.0

Qu. Please indicate if the recorded protein stability index for LELGSTEMLLDHLKAHAEEKPPSG [V8M] meets or exceeds 4.
Ans. 0.0

Qu. Please indicate if the recorded protein stability index for LELGSTEVLLDHLKAHAEEKPPST [G24T] meets or exceeds 4.
Ans. 1.0

Qu. Please indicate if the recorded protein stability index for LELGSTEVLLDHLKAHREEKPPSG [A17R] meets or exceeds 4.
Ans. 1.0

Qu. Please indicate if the recorded protein stability index for LEGGSTEVLLDHLKAHAEEKPPSG [L3G] meets or exceeds 4.
Ans. 1.0

Qu. Please indicate if the recorded protein stability index for LELGSTEVLLDHLTAHAEEKPPSG [K14T] meets or exceeds 4.
Ans. 1.0

Qu. Please indicate if the recorded protein stability index for LELGSTEVLLDHLKAHCEEKPPSG [A17C] meets or exceeds 4.
Ans. 0.0

Qu. Please indicate if the recorded protein stability index for LELGSTEVLLDHLKAHAEEKPPSV [G24V] meets or exceeds 4.
Ans. 0.0

Qu. Please indicate if the recorded protein stability index for LELGSTEVLLDHLYAHAEEKPPSG [K14Y] meets or exceeds 4.
Ans. 1.0

Qu. Please indicate if the recorded protein stability index for LELGSTEVLLMHLKAHAEEKPPSG [D11M] meets or exceeds 4.
Ans. 0.0

Qu. Please indicate if the recorded protein stability index for LELGSTEVLLDHLKAHAEEKYPSG [P21Y] meets or exceeds 4.
Ans. 0.0

Qu. Please indicate if the recorded protein stability index for LELGSTEVLLDHLKAHASEKPPSG [E18S] meets or exceeds 4.
Ans. 0.0

Qu. Please indicate if the recorded protein stability index for LELGSEEVLLDHLKAHAEEKPPSG [T6E] meets or exceeds 4.
Ans. 1.0

Qu. Please indicate if the recorded protein stability index for LELGSTEVVLDHLKAHAEEKPPSG [L9V] meets or exceeds 4.
Ans. 1.0

Qu. Please indicate if the recorded protein stability index for LELGSTEVLLDHLKAHAGEKPPSG [E18G] meets or exceeds 4.
Ans. 0.0

Qu. Please indicate if the recorded protein stability index for LCLGSTEVLLDHLKAHAEEKPPSG [E2C] meets or exceeds 4.
Ans. 0.0

Qu. Please indicate if the recorded protein stability index for HELGSTEVLLDHLKAHAEEKPPSG [L1H] meets or exceeds 4.
Ans. 1.0

Qu. Please indicate if the recorded protein stability index for LELGSTEVLLDHLKAHAEEHPPSG [K20H] meets or exceeds 4.
Ans. 0.0

Qu. Please indicate if the recorded protein stability index for LELGMTEVLLDHLKAHAEEKPPSG [S5M] meets or exceeds 4.
Ans. 0.0

Qu. Please indicate if the recorded protein stability index for LELGSTEVLLDHLKAHAFEKPPSG [E18F] meets or exceeds 4.
Ans. 0.0
